biological target: Human BACE-1 (Homo sapiens, UniProt P56817); experiment: Test 1: Inhibition of Human BACE-1; settings: mean IC50 values in Test 1; recombinant BACE-1, pH 4.5
Sequence (P56817 46-457 limits assumed): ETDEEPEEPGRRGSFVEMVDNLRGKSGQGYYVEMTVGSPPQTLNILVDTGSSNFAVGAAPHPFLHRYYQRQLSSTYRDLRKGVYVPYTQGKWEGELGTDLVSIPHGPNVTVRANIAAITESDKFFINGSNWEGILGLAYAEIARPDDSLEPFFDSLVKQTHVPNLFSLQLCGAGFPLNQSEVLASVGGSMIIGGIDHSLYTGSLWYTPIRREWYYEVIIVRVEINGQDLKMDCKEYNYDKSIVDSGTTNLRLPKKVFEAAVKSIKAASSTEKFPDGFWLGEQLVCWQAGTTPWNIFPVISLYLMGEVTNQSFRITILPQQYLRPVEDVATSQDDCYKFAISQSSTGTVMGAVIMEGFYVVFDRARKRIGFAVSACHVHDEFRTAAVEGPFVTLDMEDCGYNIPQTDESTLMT
pIC50: −log10 of the molar value. Where a name gives a salt, the structure may show the parent alone.
PROPERTY MEASURED: pIC50

Before answering, review these 3 worked examples.
1) Cc1cc(C#N)cnc1C(=O)Nc1ccc(F)c([C@]2(CF)COC(CF)(CF)C(N)=N2)c1 : 7.92
2) COc1cnc(C(=O)Nc2ccc(F)c([C@]3(C)CO[C@@](C)(C(F)(F)F)C(N)=N3)c2)c(Cl)c1 [Example 18, hydrochloride] : 7.70
3) C[C@@]1(c2cc(NC(=O)c3ncc(C(F)F)cc3Cl)ccc2F)CO[C@@](C)(C(F)(F)F)C(N)=N1 : 7.70

(P) Cc1cc(Cl)cnc1C(=O)Nc1ccc(F)c(C2(C)COC(CF)(CF)C(N)=N2)c1 (centres unmarked)
(Q) [2H]C([2H])([2H])OCc1cc(C#N)cnc1C(=O)Nc1ccc(F)c([C@]2(C)CO[C@@](C)(C(F)(F)F)C(N)=N2)c1
Query: Consider entries P and Q . Which has the numerically lower pIC50? Mark your selection by writing its label.
Reply: P
(P: 7.32, Q: 7.96)

###

system: Cellular Release of Amyloid Peptide 1-40; assay: Test 4: Inhibition of Cellular Release of Amyloid Peptide 1-40; type: cell-based, Chinese hamster; settings: Cricetulus griseus, 24 h; read-out: Amyloid-β1-40 release IC50
pIC50: −log10 of the molar value. Where a name gives a salt, the structure may show the parent alone.
PROPERTY MEASURED: pIC50

Before answering, review these 6 worked examples.
1) COc1ccc(C(=O)Nc2ccc(F)c([C@]3(C)CO[C@@](C)(C(F)(F)F)C(N)=N3)c2)c(N)n1 : 7.10
2) Cc1cc(Cl)cnc1C(=O)Nc1ccc(F)c([C@]2(C)CO[C@@](C)(C(F)(F)F)C(N)=N2)c1 [Example 20, hydrochloride] : 7.59
3) C[C@@]1(c2cc(NC(=O)c3ncc(Cl)cc3F)ccc2F)CO[C@@](C)(C(F)(F)F)C(N)=N1 [Example 21, hydrochloride] : 8.05
4) N#Cc1cnc(C(=O)Nc2ccc(F)c([C@]3(C(F)F)COCC(N)=N3)c2)c(Cl)c1 : 7.96
5) Cc1cc(C#N)cnc1C(=O)Nc1ccc(F)c(C2(C)COC(CF)(CF)C(N)=N2)c1 (racemic) : 8.40
6) COCc1cc(Cl)cnc1C(=O)Nc1ccc(F)c([C@]2(C(F)F)COCC(N)=N2)c1 : 8.22

(a) C[C@@]1(c2cc(NC(=O)c3ncc(C(F)(F)F)cc3Cl)ccc2F)CO[C@@](C)(C(F)(F)F)C(N)=N1
(b) C#CCOc1cnc(C(=O)Nc2ccc(F)c([C@]3(C(F)F)COCC(N)=N3)c2)c(N)n1
Query: Consider entries a and b . Which has the numerically lower pIC50? Mark your selection by writing its label.
Reply: a

(1) N#Cc1cnc(C(=O)Nc2ccc(F)c([C@]3(C(F)F)COCC(N)=N3)c2)c(N)c1
(2) [2H]C([2H])([2H])OCc1cc(OC([2H])([2H])[2H])cnc1C(=O)Nc1ccc(F)c([C@]2(C(F)F)COCC(N)=N2)c1
(3) Cc1cc(C(F)F)cnc1C(=O)Nc1ccc(F)c([C@]2(C)CO[C@@](C)(C(F)(F)F)C(N)=N2)c1 [Example 27, hydrochloride]
Query: # rank by pIC50, ascending (min first) // respond by listing labels in the order requested
Reply: 2, 3, 1
